Below, each of the sequences is paired with its reported pKd value.
- TESTED_TARGET: HLA-A*01:01
- ASSAY_NAME: IEDB peptide-MHC binding, purified MHC/competitive/fluorescence; filed as Kd, often an IC50 or EC50 that approximates it; bounds were set here for any values at or beyond the usual limits of such assays
- RUN_PARAMETERS: source organism: Coxiella burnetii
pKd: −log10 of the molar value.
MEASURED_QUANTITY: pKd

RESIDUE_SEQUENCE | RESULT
QSGWTIHHY | ≤ 3.00
KTEQDKLSY | ≤ 4.30
LTLLLNWVNY | ≤ 4.30
SLESGFTYY | ≤ 5.30
ETYNSINKY | ≤ 3.00
VTLVEFFDY | ≤ 3.00
MVEEKYNYFY | ≤ 5.30
HTYYLIGFLY | ≤ 4.30
FFEDFTHRY | ≤ 3.00
VSDATVAKWY | ≤ 4.30

----------
- TESTED_TARGET: HLA-A*02:01
- ASSAY_NAME: IEDB peptide-MHC binding, purified MHC/competitive/fluorescence; filed as Kd, often an IC50 or EC50 that approximates it; bounds were set here for any values at or beyond the usual limits of such assays
- RUN_PARAMETERS: source organism: Coxiella burnetii
Below, each of the sequences is paired with its reported Kd value.
MEASURED_QUANTITY: Kd

RESIDUE_SEQUENCE | MEASURED_QUANTITY | RESULT
RMYISFFPL | Kd | ≥ 5 µM
NMFQHLPYL | Kd | ≥ 5 µM
IMIDRLIEQL | Kd | ≥ 5 µM
MLWLPLLLIL | Kd | ≥ 5 µM
FLIAVFARHL | Kd | ≥ 5 µM
LLWHGVSTL | Kd | ≥ 5 µM
FLFFYSGLIL | Kd | ≥ 5 µM
VIDDLIVYRV | Kd | ≥ 50 µM
YLLDRCPFL | Kd | ≥ 5 µM
YLVNHPEVL | Kd | ≥ 50 µM

----------
- TESTED_TARGET: HLA-A*03:01
- ASSAY_NAME: IEDB peptide-MHC binding, purified MHC/competitive/fluorescence; filed as Kd, often an IC50 or EC50 that approximates it; bounds were set here for any values at or beyond the usual limits of such assays
- RUN_PARAMETERS: source organism: Coxiella burnetii
Below, each of the sequences is paired with its reported Kd value.

RESIDUE_SEQUENCE | TESTED_TARGET | Kd
ATSNLIYKLK | HLA-A*03:01 | ≥ 5 µM
LSATFITSK | HLA-A*03:01 | ≥ 5 µM
KLILFVYRY | HLA-A*03:01 | ≥ 50 µM
KTFVYPMGLY | HLA-A*03:01 | ≥ 5 µM
SLFANMNGHY | HLA-A*03:01 | ≥ 50 µM
LLSTLCLYRK | HLA-A*03:01 | ≥ 50 µM
GVDRFITYK | HLA-A*03:01 | ≥ 5 µM
ASFQNYLNDY | HLA-A*03:01 | ≥ 1000 µM
ISYDRFTVGK | HLA-A*03:01 | ≥ 5 µM
VLDCNYLSK | HLA-A*03:01 | ≥ 5 µM

----------
Below, each of the sequences is paired with its reported pKd value.
- TESTED_TARGET: HLA-A*24:02
- ASSAY_NAME: IEDB peptide-MHC binding, purified MHC/competitive/fluorescence; filed as Kd, often an IC50 or EC50 that approximates it; bounds were set here for any values at or beyond the usual limits of such assays
- RUN_PARAMETERS: source organism: Coxiella burnetii
pKd: −log10 of the molar value.

RESIDUE_SEQUENCE | pKd
TYRHNKKLL | ≤ 4.30
QYLQYLWPL | ≤ 5.30
NFSDYIWHF | ≤ 5.30
TYRVLNYKDL | ≤ 4.30
IYDDRLLFEF | ≤ 5.30
LYDDEFKFL | ≤ 5.30
GYHSITPYLF | ≤ 5.30
WYVVNNNYL | ≤ 5.30
SFVPKFFLTF | ≤ 5.30
